Please find below IC50 data on MTP (Homo sapiens) compiled from the literature.
Entries get a class label from measured IC50. See ranges: low band: < 10 nM; middle band: ≥ 10 nM and < 400 nM; high band: ≥ 400 nM

Here are 4 compounds together with their reported answers.
* Cn1cccc(C(=O)NC2CCN(C(=O)[C@H]3CC[C@@](C(=O)N[C@@H](C(=O)O)c4ccccc4)(c4ccccc4)c4ccccc43)CC2)c1=O | high band
* COC(=O)C(c1ccccc1)C1CCN(c2ccc(NC(=O)c3ccccc3-c3ccc(C(F)(F)F)cc3)cc2)CC1 (stereo not drawn) | middle band
* CCOC(=O)[C@H](NC(=O)[C@@]1(c2ccccc2)CC[C@H](C(=O)N2CCC(NC(=O)c3ccccc3OC)CC2)c2ccccc21)C(C)C | middle band
* CCOC(=O)[C@@H](CCCCNC(=O)OC(C)(C)C)NC(=O)[C@@]1(c2ccccc2)CC[C@H](C(=O)N2CCC(NC(=O)c3ccccc3OC)CC2)c2ccccc21 | low band

INPUT: Using the reported IC50, which band applies to `Cc1ccc(C(=O)Nc2ccc(N3CCN(Cc4cccc(-c5nc(C)no5)c4)CC3)cc2)c(-c2ccc(C(C)C)cc2)c1` ?
OUTPUT: low band

INPUT: Using the reported IC50, which band applies to `Cn1cccc(C(=O)NC2CCN(C(=O)[C@H]3CC[C@@](C(=O)N[C@@H](CC(N)=O)C(=O)OC(C)(C)C)(c4ccccc4)c4ccccc43)CC2)c1=O` ?
OUTPUT: high band

INPUT: Using the reported IC50, which band applies to CCOC(=O)C1CCCN(C(=O)[C@@]2(c3ccccc3)CC[C@H](C(=O)N3CCC(NC(=O)c4ccccc4OC)CC3)c3ccccc32)C1 (stereo partly drawn) ?
OUTPUT: middle band

INPUT: Using the reported IC50, which band applies to `COc1ccccc1C(=O)NC1CCN(C(=O)[C@H]2CC[C@@](C(=O)N[C@@H](CC(N)=O)C(=O)OC(C)(C)C)(c3ccccc3)c3ccccc32)CC1` ?
OUTPUT: middle band

INPUT: Using the reported IC50, which band applies to `COC(=O)CCNC(=O)[C@@]1(c2ccccc2)CC[C@H](C(=O)N2CCC(NC(=O)c3cccn(C)c3=O)CC2)c2ccccc21` ?
OUTPUT: high band

INPUT: Using the reported IC50, which band applies to `COc1ccccc1C(=O)NC1CCN(C(=O)[C@H]2CC[C@@](C(=O)N[C@@H](CC(=O)O)C(=O)O)(c3ccccc3)c3ccccc32)CC1` ?
OUTPUT: high band

INPUT: Using the reported IC50, which band applies to CCOC(=O)CC(C)NC(=O)[C@@]1(c2ccccc2)CC[C@H](C(=O)N2CCC(NC(=O)c3ccccc3OC)CC2)c2ccccc21 (stereo partly drawn) ?
OUTPUT: low band

INPUT: Using the reported IC50, which band applies to `CCOC(=O)[C@H](CC(C)C)NC(=O)[C@@]1(c2ccccc2)CC[C@H](C(=O)N2CCC(NC(=O)c3ccccc3OC)CC2)c2ccccc21` ?
OUTPUT: middle band
